assay: signal artefacts in PPARgamma/SRC-3 readout – biochemical, TR-FRET ratio, artefact control for PPARgamma SRC-3 recruitment agonists (AID 1048); conditions: TR-FRET artefact counter-screen, PPARgamma/SRC-3 format; at 8 µM; stronger effect = higher value
Among all 99,000 compounds or so, about 390 (0.39%) were called active. This excerpt belongs to a sample that is enriched for actives.
Value Type: TR-FRET ratio

Below: 5 molecules and their reported TR-FRET ratio.
Molecule	TR-FRET ratio
O=C(Nc1ccc2ccccc2c1)/C(=C\c1ccc2c(c1)OCO2)NC(=O)c1ccco1	1560 (inactive)
COn1c(-c2ccc(Cl)cc2Cl)nc2ncccc21	1970 (inactive)
COc1cccc(NC(=O)CC(c2ccc(OC(C)C)cc2)c2ccccc2OC)c1 (centres undefined)	1470 (inactive)
COc1ccc(CCNC(=O)COC(=O)C2CCCCC2)cc1	1330 (inactive)
Cc1cccc(-c2ncc(CN3CCC(CO)(CCCc4ccccc4)CC3)cn2)c1	1420 (inactive)

Enquiry: Suppose we examine the molecule "C/C(CC(=O)N1CCN(C=O)CC1)=N\NC(=O)c1ccc(Br)cc1" ; what TR-FRET ratio value has been reported?
Return: 1640 (inactive)

Enquiry: Moving on to "Cn1c(=O)cc(SCC(=O)N2CCCC2)c2cc(Cl)ccc21"
Return: 3460 (active)

Enquiry: Moving on to "Cc1ccc(C(=O)NCC(=O)O)s1"
Return: 1560 (inactive)

Enquiry: Moving on to CCOC(=O)c1c(NC(=O)C(C)Sc2c[nH]c3ccccc23)sc2c1CCC2 (centres undefined)
Return: 3480 (active)

Enquiry: Moving on to "CCOc1ccc(N2C(=O)CN(c3cccc4ccccc34)C2=S)cc1"
Return: 1810 (inactive)

Enquiry: Moving on to COc1ccc2c(c1)C(SCC(=O)NCc1ccccc1)CC(C)(C)O2 (centres undefined)
Return: 1590 (inactive)

Enquiry: Moving on to "CC(C)(C)NC(=O)COC(=O)c1cc(Cl)ccc1[N+](=O)[O-]"
Return: 1550 (inactive)

Enquiry: Moving on to "CC(C)NC(=O)c1ccc(Cl)cc1Cl"
Return: 1730 (inactive)

Enquiry: Moving on to "CN(Cc1ccccn1)Cc1nc(-c2ccc(Cl)cc2)no1"
Return: 1430 (inactive)

Enquiry: Moving on to "C=CCn1c(CNC(=O)c2ccco2)nnc1SCC(=O)c1ccc(OC)cc1"
Return: 1770 (inactive)

Enquiry: Moving on to "COc1cc(/C=C/C(=O)O)cc(S(=O)(=O)Nc2ccccc2SC)c1OC"
Return: 1430 (inactive)

Enquiry: Moving on to "Cc1ccc(S(=O)(=O)N(C)c2ccc(OCC(=O)NC3=NCCS3)cc2)cc1"
Return: 1460 (inactive)

Enquiry: Moving on to OCCC1CN(Cc2cnc(-c3ccccc3)s2)CCN1CCc1ccccc1 (centres undefined)
Return: 1800 (inactive)

Enquiry: Moving on to O=C(NCc1ccc(F)cc1)C(c1ccccc1)N(C(=O)c1csnn1)C1CC1 (centres undefined)
Return: 1460 (inactive)

Enquiry: Moving on to CC(C)(C)C1CCC(C(=O)Nc2cccnc2)CC1 (centres undefined)
Return: 1510 (inactive)

Enquiry: Moving on to "CCN(CC)c1ccc(C(=O)N/N=C/c2ccc(N3CCOCC3)cc2)cc1"
Return: 1580 (inactive)

Enquiry: Moving on to "CCN1CCN(C(=O)CCN2C(=O)c3ccccc3C2=O)CC1"
Return: 1540 (inactive)

Enquiry: Moving on to Cc1ccc(C(=O)N/C(=C/c2cccs2)C(=O)NCC2CCCO2)cc1 (centres undefined)
Return: 1510 (inactive)

Enquiry: Moving on to "COc1ccc(C(=O)NNC(=O)c2cc(C)[nH]n2)cc1"
Return: 1480 (inactive)

* * *

experiment: signal artefacts in PPARgamma/SRC-3 readout – biochemical, TR-FRET ratio, artefact control for PPARgamma SRC-3 recruitment agonists (AID 1048); settings: TR-FRET artefact counter-screen, PPARgamma/SRC-3 format; at 8 µM; stronger effect = higher value
Hit rate of the full screen: of about 99,000 compounds, about 390 (0.39%) were called active. This excerpt belongs to a sample that is enriched for actives.
Measured TR-FRET ratio, listed per entry.

Compound	TR-FRET ratio
CC(Sc1cccc[n+]1[O-])C(=O)Nc1cccc(S(=O)(=O)N2CCOCC2)c1 (configuration not stated)	1620 (inactive)
CC(NC(=O)COC(=O)c1ccc(Cl)cc1O)c1ccc(F)cc1 (configuration not stated)	1480 (inactive)
CCN(C(=O)COC(=O)/C=C/c1nc2ccccc2s1)C1CCS(=O)(=O)C1 (configuration not stated)	1560 (inactive)
Cc1ccccc1-c1n[nH]c(=S)n1C	1470 (inactive)
CC(C)(C)NC(=O)CN1CCC(NC(=O)C23CC4CC(CC(C4)C2)C3)CC1	1580 (inactive)

Enquiry: Suppose we examine the compound "S=c1[nH]nc(-c2ccccc2)n1/N=C/c1c[nH]c2ccccc12" ; what TR-FRET ratio value has been reported?
Return: 1470 (inactive)

Enquiry: Moving on to "CCc1nnc(NC(=O)CSc2nnnn2-c2cccc(C(C)=O)c2)s1"
Return: 1550 (inactive)

* * *

test: signal artefacts in PPARgamma/SRC-3 readout – biochemical, TR-FRET ratio, artefact control for PPARgamma SRC-3 recruitment agonists (AID 1048); conditions: TR-FRET artefact counter-screen, PPARgamma/SRC-3 format; at 8 µM
Hit rate of the full screen: of about 99,000 compounds, about 390 (0.39%) were called active. Cut-off read from the data, not from the text of the source: active = TR-FRET ratio above about 2000; inactive = the rest. Many of the other results were omitted from the sample, so actives are more common in it than they were.
In this exercise, the only acceptable responses are label 1 (active), label 0 (inactive)

The following molecules have reported results that may help.
Molecule	Answer Label
COC(=O)c1ccc(/C=N/OCC(=O)Nc2cc(F)ccc2F)cc1	label 0
CCN(CCCNC(=O)CSc1cc(=O)n(C)c2cc(Cl)ccc12)Cc1ccccc1	label 1

Enquiry: Assay result, entry "Cc1cc(C(=O)NNC(=O)c2cccc(S(=O)(=O)N3CCOCC3)c2)c2ccccc2n1" — outcome?
Return: label 0

Enquiry: Moving on to "Cc1cccc(NC(=O)c2sc(-c3ccccc3)nc2-c2ccc([N+](=O)[O-])cc2)c1"
Return: label 0

Enquiry: Moving on to "COc1ccc(C(=O)CSc2nnc(-c3ccco3)o2)cc1"
Return: label 0

* * *

experiment: signal artefacts in PPARgamma/SRC-3 readout – biochemical, TR-FRET ratio, artefact control for PPARgamma SRC-3 recruitment agonists (AID 1048); settings: TR-FRET artefact counter-screen, PPARgamma/SRC-3 format; at 8 µM; stronger effect = higher value
The campaign covered roughly 99,000 compounds. About 390 (0.39%) were called active. Many of the other results were omitted from the sample, so actives are more common in it than they were.
Value Type: TR-FRET ratio
API note: the answer field is a bare number with no unit suffix.

Compound	TR-FRET ratio
CC(=O)c1cccc(CN2CCC(CO)(Cc3ccccc3)CC2)c1	1520

Enquiry: Suppose we examine the compound "COc1cccc(OC)c1C(=O)NC(=S)Nc1ccc(N2CCOCC2)c(Cl)c1" ; what TR-FRET ratio value has been reported?
Return: 1350

Enquiry: Moving on to COc1cccc(CNC(=O)CCN2C(=S)NC(C)(C)CC2C)c1 (stereo not given)
Return: 1480

Enquiry: Moving on to "O=C(NNC(=O)c1cc2c(s1)CCCC2)c1ccccc1"
Return: 1550

Enquiry: Moving on to "CCOC(=O)N/N=C/c1cccnc1"
Return: 1540

Enquiry: Moving on to "COc1ccc(C(=O)NNC(=S)NC(=O)c2ccccc2[N+](=O)[O-])cc1"
Return: 1550

Enquiry: Moving on to Cc1ccc(C(=O)OC(C)CN2CCOCC2)cc1 (stereo not given)
Return: 1500

Enquiry: Moving on to CC(C)c1nc(CNC(=O)CC2C(=O)NCCN2Cc2ccoc2)cs1 (stereo not given)
Return: 1610

Enquiry: Moving on to "CN(C)c1ccc(/C=N/Nc2cc(N3CCOCC3)nc(N3CCOCC3)n2)cc1"
Return: 2070

Enquiry: Moving on to "COc1ccccc1NC(=O)COC(=O)Cc1ccc(S(=O)(=O)N2CCCCC2)s1"
Return: 1680

Enquiry: Moving on to "O=C(CCN1CCCCC1)N=Nc1c(O)[nH]c2ccccc12"
Return: 1900

Enquiry: Moving on to "N/C(Cc1ccc([N+](=O)[O-])cc1)=N\OC(=O)C1CCCCC1"
Return: 1640

Enquiry: Moving on to CCC(C)N(C(=O)COC(=O)C1C(C(=O)OC)=C(C)NC(C)=C1C(=O)OC)C1CCS(=O)(=O)C1 (stereo not given)
Return: 1620

Enquiry: Moving on to "CCOc1ccc(CCNC(=O)CSc2cc(=O)n(C)c3ccc(Cl)cc23)cc1OCC"
Return: 1800

Enquiry: Moving on to "Cc1ccc2nsnc2c1NC(=O)c1ccccc1[N+](=O)[O-]"
Return: 1630
